Target: NanoLuc (Oplophorus gracilirostris, UniProt Q9GV45, A31E/A60N/A81I/F95D/I117V/K70R/L54V/L99Q/M102K/N193R/P142E/Q151K/Q38R/Q45L/V71I/Y165I)
Construct: Engineered 19 kDa subunit variant (NanoLuc, about 171 residues, no signal peptide)
Sequence (Q9GV45 28-196 with the stated changes): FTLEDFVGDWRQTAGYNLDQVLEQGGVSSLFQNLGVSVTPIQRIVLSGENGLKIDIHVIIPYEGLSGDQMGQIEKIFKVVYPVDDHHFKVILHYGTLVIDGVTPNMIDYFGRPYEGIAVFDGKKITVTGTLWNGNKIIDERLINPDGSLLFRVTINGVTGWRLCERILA
Experiment: spectrofluorometric titration
Format: binding
Conditions: read-out: [drawing 3] / [drawing 7] / 4cc
Reported property: pKd
Note on pKd: it is the negative log10 of concentration, concentration in mol/L.

QUERY: Fill in the blank: the reported pKd of O=C1/C(=C/c2ccc[nH]2)N=C(/C=C/c2ccccc2)N1CCc1ccc(O)cc1 (mixture of isomers) is ____.
RESULT: 6.26
